protocol_notes: Competitive inhibition of Streptococcus pneumoniae ASADH using aspartyl semialdehyde as substrate using Dixon plot analysis
measured_quantity: Ki (mM)

compound_smiles=O=C1NC(=O)c2cc([N+](=O)[O-])ccc21 qual== reported_value=3.3
compound_smiles=O=C1NC(=O)c2cc([N+](=O)[O-])c(Cl)cc21 qual== reported_value=0.15
compound_smiles=COC(=O)c1ccc(C(=O)OC)nc1 qual=> reported_value=20
compound_smiles=O=C(O)c1ccc([N+](=O)[O-])cn1 qual== reported_value=1.2
compound_smiles=COC(=O)c1ccc([N+](=O)[O-])cn1 qual=> reported_value=20
compound_smiles=Cn1c(=O)n(C)c2cc([N+](=O)[O-])ccc21 qual== reported_value=0.086
compound_smiles=CCN1C(=O)c2ccc([N+](=O)[O-])cc2C1=O qual=> reported_value=4
